// reported IC50 per item
systemTested: LK35.2-hPD-L1 cells / PE-labeled PD-1-Ig (Homo sapiens, UniProt Q9NZQ7)
Construct: expressed in transfected cells; host or cells: LK35.2 mouse B cell line
Sequence (Q9NZQ7 19-290): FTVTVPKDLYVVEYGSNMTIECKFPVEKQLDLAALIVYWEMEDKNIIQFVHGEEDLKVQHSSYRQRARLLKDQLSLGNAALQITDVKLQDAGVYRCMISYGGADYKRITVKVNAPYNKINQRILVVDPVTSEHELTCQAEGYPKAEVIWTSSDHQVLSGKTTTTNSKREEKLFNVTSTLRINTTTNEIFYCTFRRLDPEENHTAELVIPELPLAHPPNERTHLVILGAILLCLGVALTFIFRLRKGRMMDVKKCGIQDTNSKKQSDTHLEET
experimentalProtocol: LK35.2-hPD-L1 cell binding high-content screening assay
Type: cell-based
particulars: cell binding assay, cell line not given; cluster symbol; read-out: CBA IC50 cluster
Method: LK35.2-hPD-L1 Cell Binding High-Content Screening Assay. Phycoerythrin (PE) was covalently linked to the Ig epitope tag of human PD-1-Ig and fluorescently-labeled PD-1-Ig was used for binding studies with a mouse B cell line (LK35.2) stably over-expressing human PD-L1 (LK35.2-hPD-L1). Briefly, 3×10^3 LK35.2-hPD-L1 cells were seeded into 384 well plates in 20 ul of RPMI supplemented with 10% fetal calf serum and cultured overnight. […]
Positions of bridges follow the written chain, without caps; N, C: chain ends. Non-standard residues stand in square brackets, D forms with d. Residues, ends and D or L forms follow the SMILES beside them. ξ: configuration not given here. Phe(3,4-(OMe)2) = COc1ccc(C[C@H](N)C(=O)O)cc1OC; Hyp = O=C(O)[C@@H]1C[C@@H](O)CN1; NMeF = CN[C@@H](Cc1ccccc1)C(=O)O; NMeNle = CCCC[C@H](NC)C(=O)O; NMeM = CN[C@@H](CCSC)C(=O)O; NMeA = CN[C@@H](C)C(=O)O; ξC = NC(CS)C(=O)O; Sar = CNCC(=O)O

CCCC[C@H]1C(=O)N[C@@H](CCCNC(=N)N)C(=O)NC(C(=O)NCC(N)=O)CSCC(=O)N[C@@H](Cc2ccc(O)cc2)C(=O)N(C)[C@@H](C)C(=O)N[C@@H](CC(N)=O)C(=O)N2CCC[C@H]2C(=O)N[C@@H](CO)C(=O)N[C@@H](CC(C)C)C(=O)N2C[C@H](O)C[C@H]2C(=O)N[C@@H](Cc2c[nH]c3ccccc23)C(=O)N[C@@H](CO)C(=O)N[C@@H](Cc2c[nH]c3ccccc23)C(=O)N(C)[C@@H](CCSC)C(=O)N1C (some centres unmarked) [Example 9100] ({CH2CO}-Y[NMeA]NPSL[Hyp]WSW[NMeM][NMeNle]R[ξC]G-NH2; thioether N-14); 0.158 to 4.71 nM

Challenge: # lookup: LK35.2-hPD-L1 cells / PE-labeled PD-1-Ig (Homo sapiens, UniProt Q9NZQ7) IC50, key = CCCC[C@H]1C(=O)N(C)CC(=O)N[C@@H](CC(=O)O)C(=O)N[C@@H](C(C)C)C(=O)N(C)[C@@H](Cc2ccccc2)C(=O)N[C@@H](Cc2ccc(OC)c(OC)c2)C(=O)N(C)CC(=O)N[C@@H](Cc2c[nH]c3ccccc23)C(=O)N[C@@H](Cc2ccc(O)cc2)C(=O)N[C@@H](CC(C)C)C(=O)N[C@H](C(=O)NCC(N)=O)CSCC(=O)N[C@@H](Cc2ccccc2)C(=O)N(C)[C@@H](Cc2ccccc2)C(=O)N1C [Example 3533] ({CH2CO}-F[NMeF][NMeNle][Sar]DV[NMeF][Phe(3,4-(OMe)2)][Sar]WYLCG-NH2; thioether N-13)
Response given: 4.78 to 72.9 nM
